For each entry below, report its SPOT peptide array binding signal intensity value.
biological target: SpBbc1; assay: SPOT peptide array binding signal intensity (averaged, normalized) (arbitrary units (background-subtracted, floor 0; scale differs between SH3 domains)); higher = stronger binding of the SH3 domain to the peptide
# answer = number (no unit)

Req: Which SPOT peptide array binding signal intensity value is on record for `MAMRPIPPLPTESEY` ?
Resp: 4.75

Req: Now consider `VFQFQMPTTPISTKM` and answer again.
Resp: 2.5

Req: Now consider `NVLRKILEIPLHSFS` and answer again.
Resp: 38

Req: Now consider `VGFRLALKFPSRITG` and answer again.
Resp: 97.5

Req: Now consider `PPPPPPPPPPPLPQS` and answer again.
Resp: 0.5
